Study System: Uncharacterized protein (Gallus gallus) (UniProt F1NJH8)
Run Description: Antagonist activity at chicken TRPV1 receptor assessed as inhibition of capsaicin-induced calcium flux at 1 uM after 30 mins by cell based Fluo-4AM fluorescence assay relative to control
Entries and their inhibition

Compound Structure: CCCCCC(=O)Nc1nnc(-c2cc(I)c(O)c(OC)c2)s1
inhibition, %: 95.3

Compound Structure: CC(C)(C)c1ccc(NC(=O)N2CCN(c3ncccc3Cl)CC2)cc1
inhibition, %: 8.97

Compound Structure: CCCCCC(=O)Nc1nnc(-c2ccc(O)c(OC)c2)s1
inhibition, %: 92.6

Compound Structure: CCCCCCCC(=O)Nc1nnc(-c2ccc(O)c(OC)c2)s1
inhibition, %: 81.2

Compound Structure: CCCCCCCCC(=O)Nc1nnc(-c2cc(I)c(O)c(OC)c2)s1
inhibition, %: 80.1

Compound Structure: CCCCCCCC(=O)Nc1nnc(-c2cc(I)c(O)c(OC)c2)s1
inhibition, %: 85.4

Compound Structure: CCCCCCCCC(=O)Nc1nnc(-c2ccc(O)c(OC)c2)s1
inhibition, %: 79.4

----------
Entries and their inhibition
Study System: Transient receptor potential cation channel subfamily V member 1 (Rattus norvegicus) (UniProt O35433)
Sequence (O35433 whole entry): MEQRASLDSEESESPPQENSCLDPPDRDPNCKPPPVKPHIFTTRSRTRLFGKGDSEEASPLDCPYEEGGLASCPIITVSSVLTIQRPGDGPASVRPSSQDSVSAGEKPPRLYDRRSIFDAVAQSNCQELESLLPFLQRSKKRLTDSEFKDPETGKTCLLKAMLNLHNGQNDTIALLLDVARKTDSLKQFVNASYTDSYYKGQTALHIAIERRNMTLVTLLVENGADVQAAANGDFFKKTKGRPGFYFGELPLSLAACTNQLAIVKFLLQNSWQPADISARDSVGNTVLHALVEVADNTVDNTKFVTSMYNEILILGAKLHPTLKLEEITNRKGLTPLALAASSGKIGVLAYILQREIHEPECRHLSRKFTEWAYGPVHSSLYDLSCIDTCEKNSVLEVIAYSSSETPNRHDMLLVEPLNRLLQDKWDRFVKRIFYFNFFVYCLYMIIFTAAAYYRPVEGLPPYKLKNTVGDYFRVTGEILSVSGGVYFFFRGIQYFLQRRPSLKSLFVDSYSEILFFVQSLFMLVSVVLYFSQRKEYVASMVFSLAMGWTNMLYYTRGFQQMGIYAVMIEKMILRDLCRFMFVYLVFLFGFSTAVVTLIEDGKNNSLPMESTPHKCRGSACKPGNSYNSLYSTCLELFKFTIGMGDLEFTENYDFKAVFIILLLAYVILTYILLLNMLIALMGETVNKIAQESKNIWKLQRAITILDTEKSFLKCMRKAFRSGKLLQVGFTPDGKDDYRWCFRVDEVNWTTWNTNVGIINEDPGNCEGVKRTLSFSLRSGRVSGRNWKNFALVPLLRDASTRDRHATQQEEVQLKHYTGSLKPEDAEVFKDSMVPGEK
Run Description: Antagonist activity at rat TRPV1 receptor expressed in HEK293T cells assessed as inhibition of capsaicin-induced calcium flux at 1 uM after 30 mins by Fluo-4AM based fluorescence assay relative to control
Type: cell-based
Condition Description: HEK-293T
Measurement Name: inhibition (%)

Compound Structure: CCCCCCC(=O)Nc1nnc(-c2cc(I)c(O)c(OC)c2)s1
Recorded Measurement: 90.8
--
Compound Structure: CCCCCCCCC(=O)Nc1nnc(-c2cc(I)c(O)c(OC)c2)s1
Recorded Measurement: 96.9
--
Compound Structure: CC(C)(C)c1ccc(NC(=O)N2CCN(c3ncccc3Cl)CC2)cc1
Recorded Measurement: 92.7
--
Compound Structure: CCCCCC(=O)Nc1nnc(-c2ccc(O)c(OC)c2)s1
Recorded Measurement: 95.5
--
Compound Structure: CCCCCCC(=O)Nc1nnc(-c2ccc(O)c(OC)c2)s1
Recorded Measurement: 95.3
--
Compound Structure: CCCCCCCC(=O)Nc1nnc(-c2cc(I)c(O)c(OC)c2)s1
Recorded Measurement: 94.5
--
Compound Structure: CCCCCCCCC(=O)Nc1nnc(-c2ccc(O)c(OC)c2)s1
Recorded Measurement: 98.8
--
Compound Structure: CCCCCC(=O)Nc1nnc(-c2cc(I)c(O)c(OC)c2)s1
Recorded Measurement: 96.6
--
Compound Structure: CCCCCCCC(=O)Nc1nnc(-c2ccc(O)c(OC)c2)s1
Recorded Measurement: 97.7

----------
Study System: Transient receptor potential cation channel subfamily V member 1 (Rattus norvegicus, UniProt O35433)
Sequence (O35433 whole entry): as above
Run Description: Antagonist activity at rat TRPV1 receptor expressed in HEK293T cells assessed as inhibition of capsaicin-induced calcium flux after 30 mins by Fluo-4AM based fluorescence assay
Type: cell-based, HEK-293T
pIC50: −log10 of the molar value.
Measurement Name: pIC50

Compound Structure: CCCCCCCC(=O)Nc1nnc(-c2cc(I)c(O)c(OC)c2)s1
Measurement Name: pIC50
Recorded Measurement: 9.48
--
Compound Structure: CCCCCCC(=O)Nc1nnc(-c2cc(I)c(O)c(OC)c2)s1
Measurement Name: pIC50
Recorded Measurement: 8.22
--
Compound Structure: CCCCCC(=O)Nc1nnc(-c2ccc(O)c(OC)c2)s1
Measurement Name: pIC50
Recorded Measurement: 8.58
--
Compound Structure: CCCCCCCCC(=O)Nc1nnc(-c2ccc(O)c(OC)c2)s1
Measurement Name: pIC50
Recorded Measurement: 9.74
--
Compound Structure: CCCCCCCCC(=O)Nc1nnc(-c2cc(I)c(O)c(OC)c2)s1
Measurement Name: pIC50
Recorded Measurement: 9.47
--
Compound Structure: CCCCCC(=O)Nc1nnc(-c2cc(I)c(O)c(OC)c2)s1
Measurement Name: pIC50
Recorded Measurement: 8.83
--
Compound Structure: CCCCCCCC(=O)Nc1nnc(-c2ccc(O)c(OC)c2)s1
Measurement Name: pIC50
Recorded Measurement: 9.82
--
Compound Structure: CCCCCCC(=O)Nc1nnc(-c2ccc(O)c(OC)c2)s1
Measurement Name: pIC50
Recorded Measurement: 9.11

----------
Study System: Transient receptor potential cation channel subfamily V member 1 (Rattus norvegicus)
Run Description: Antagonist activity at rat TRPV1 receptor expressed in HEK293T cells assessed as inhibition of temperature-induced calcium flux at 1 uM after 30 mins by Fluo-4AM based fluorescence assay relative to control
Assay type: cell-based
Condition Description: HEK-293T

Compound Structure: CCCCCCC(=O)Nc1nnc(-c2cc(I)c(O)c(OC)c2)s1
Study System: Transient receptor potential cation channel subfamily V member 1 (Rattus norvegicus)
inhibition: 92.4%
--
Compound Structure: CCCCCCCC(=O)Nc1nnc(-c2ccc(O)c(OC)c2)s1
Study System: Transient receptor potential cation channel subfamily V member 1 (Rattus norvegicus)
inhibition: 89.8%
--
Compound Structure: CCCCCC(=O)Nc1nnc(-c2cc(I)c(O)c(OC)c2)s1
Study System: Transient receptor potential cation channel subfamily V member 1 (Rattus norvegicus)
inhibition: 94.3%
--
Compound Structure: CCCCCC(=O)Nc1nnc(-c2ccc(O)c(OC)c2)s1
Study System: Transient receptor potential cation channel subfamily V member 1 (Rattus norvegicus)
inhibition: 88.8%
--
Compound Structure: CCCCCCCCC(=O)Nc1nnc(-c2ccc(O)c(OC)c2)s1
Study System: Transient receptor potential cation channel subfamily V member 1 (Rattus norvegicus)
inhibition: 92.9%
--
Compound Structure: CCCCCCCCC(=O)Nc1nnc(-c2cc(I)c(O)c(OC)c2)s1
Study System: Transient receptor potential cation channel subfamily V member 1 (Rattus norvegicus)
inhibition: 91.9%
--
Compound Structure: CCCCCCCC(=O)Nc1nnc(-c2cc(I)c(O)c(OC)c2)s1
Study System: Transient receptor potential cation channel subfamily V member 1 (Rattus norvegicus)
inhibition: 93.7%
--
Compound Structure: CC(C)(C)c1ccc(NC(=O)N2CCN(c3ncccc3Cl)CC2)cc1
Study System: Transient receptor potential cation channel subfamily V member 1 (Rattus norvegicus)
inhibition: 66.4%
--
Compound Structure: CCCCCCC(=O)Nc1nnc(-c2ccc(O)c(OC)c2)s1
Study System: Transient receptor potential cation channel subfamily V member 1 (Rattus norvegicus)
inhibition: 94%

----------
Study System: Transient receptor potential cation channel subfamily V member 1 (Rattus norvegicus)
Run Description: Antagonist activity at rat TRPV1 receptor expressed in HEK293T cells assessed as inhibition of temperature-induced calcium flux after 30 mins by Fluo-4AM based fluorescence assay
Type: cell-based, HEK-293T
pIC50: −log10 of the molar value.
Entries and their pIC50
Measurement Name: pIC50

Compound Structure: CCCCCCCC(=O)Nc1nnc(-c2cc(I)c(O)c(OC)c2)s1
Measurement Name: pIC50
Recorded Measurement: 8.96
--
Compound Structure: CCCCCC(=O)Nc1nnc(-c2cc(I)c(O)c(OC)c2)s1
Measurement Name: pIC50
Recorded Measurement: 9.54
--
Compound Structure: CCCCCCCCC(=O)Nc1nnc(-c2ccc(O)c(OC)c2)s1
Measurement Name: pIC50
Recorded Measurement: 10.30
--
Compound Structure: CCCCCCCCC(=O)Nc1nnc(-c2cc(I)c(O)c(OC)c2)s1
Measurement Name: pIC50
Recorded Measurement: 9.82

meta.source: ChEMBL document CHEMBL2413050
